Each recorded value in this set is attributed to patent US20140086935A1.

- tgt: rat TIMP-1 (rat, UniProt P30120 24-217)
- Sequence (P30120 24-217 limits assumed): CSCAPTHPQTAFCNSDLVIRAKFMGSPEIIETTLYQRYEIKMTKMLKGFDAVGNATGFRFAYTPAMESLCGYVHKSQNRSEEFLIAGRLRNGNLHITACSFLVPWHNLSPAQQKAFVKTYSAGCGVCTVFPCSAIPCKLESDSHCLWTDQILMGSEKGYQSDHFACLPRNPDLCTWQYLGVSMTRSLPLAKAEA
- test_summary: cell-based or functional assay
measured_endpoint: IC50 in rat protease assay (nM)
Answers are plain numbers, in nM.

// below: answered binders
{"binder": "MS-BW-17-2 (Fab, V domains shown, Fab from LCDR3 optimization of MS-BW-17) VH: QVQLVQSGAEVKKPGESLKISCKGSGYSFTSYWIGWVRQMPGKGLEWMGIIYPGDSDTRYSPSFQGQVTISADKSISTAYLQWSSLKASDTAMYYCARLTNYFDSIYYDHWGQGTLVTVSS VL: DIALTQPASVSGSPGQSITISCTGTSSDVGGYNYVSWYQQHPGKAPKLMIYDVSNRPSGVSNRFSGSKSGNTASLTISGLQAEDEADYYCQAFAVMPNVEVFGGGTKLTVLG", "measured_endpoint": "IC50 in rat protease assay", "reported": 1.1}
{"binder": "MS-BW-54 (Fab, V domains shown, Fab, FLAG + Strep-tag II; not tied by name) VH: QVQLVQSGAEVKKPGESLKISCKGSGYSFTSYWIGWVRQMPGKGLEWMGIIYPGDSDTRYSPSFQGQVTISADKSISTAYLQWSSLKASDTAMYYCARYYGFEYDLLFDNWGQGTLVTVSS VL: DIALTQPASVSGSPGQSITISCTGTSSDVGGYNYVSWYQQHPGKAPKLMIYDVSNRPSGVSNRFSGSKSGNTASLTISGLQAEDEADYYCQSYDISGYPVFGGGTKLTVLG", "measured_endpoint": "IC50 in rat protease assay", "reported": 7}

Lookup: Requested field: IC50 in rat protease assay. Item: MS-BW-14 (Fab, V domains shown, Fab, FLAG + Strep-tag II; not tied by name; also called MS-BW-14 Fab) VH: QVQLVQSGAEVKKPGSSVKVSCKASGGTFSSYAISWVRQAPGQGLEWMGGIIPIFGTANYAQKFQGRVTITADESTSTAYMELSSLRSEDTAVYYCARWSDQSYHYYWHPYFDVWGQGTLVTVSS VL: DIVLTQPPSVSGAPGQRVTISCSGSSSNIGSNYVSWYQQLPGTAPKLLIYDNNQRPSGVPDRFSGSKSGTSASLAITGLQSEDEADYYCQSWDLEPYVFGGGTKLTVLG
Found: 14
